System: UO-31 renal
PROCEDURE_TEXT: NCI tumour cell line growth inhibition, 48 h; in the data active = GI50 below about 0.43 µM; inactive = the rest
Would you mind answering with one of these outcomes? y = active, n = inactive

Example entries and their recorded answers appear below.
>>> classification("CCCCN(CC)CCCCCCCCCCN1CCCc2cc(OC)ccc21")
"n"
>>> classification("COc1cc2c(cc1OCCCCn1c(-c3cccs3)nc3ccccc31)N=C[C@@H]1CCCN1C2=O")
"n"
>>> classification("O=C1c2cccnc2C(=O)c2c1c(C(=O)OCCc1ccccn1)c1ccccn21")
"y"

Exercise: Please share the test call associated with COc1cc(/C=C/C(=O)c2c(C)nc3ccccc3c2C)ccc1OCCCCOc1cc2c(cc1OC)C(=O)N1CCC[C@H]1C=N2 .
Key: y

Exercise: Assay outcome for COc1ncc(-c2ccc3nccc(C#CCN4CCN(S(C)(=O)=O)CC4)c3c2)cc1NS(=O)(=O)c1ccc(F)cc1F : what was it?
Key: y

Exercise: Status in this test for O=C(NS(=O)(=O)c1ccc(NC[C@H]2COCCO2)c([N+](=O)[O-])c1)c1ccc(N2CCN(CC3=C(c4ccc(Cl)cc4)CC4(CCC4)CC3)CC2)cc1Oc1cnc2[nH]ccc2c1 ?
Key: n

Exercise: Tell me the recorded outcome of this test for NC(=O)CCc1ccccc1Oc1nccc(-c2c(-c3ccc(F)cc3)ncn2C2CCNCC2)n1 .
Key: n

Exercise: Kindly provide the recorded test outcome for the following compound: O=Cc1ccc(-c2ccc(-c3ccc(C=O)o3)[se]2)o1
Key: n

Exercise: Hi, do you know how O=C(Nc1ccc(I)cc1)c1cccc([N+](=O)[O-])c1O came out in this test?
Key: n

Exercise: Please indicate how the test categorized O=C1/C(=C\c2ccccc2)CN(C(=O)c2ccccc2)C/C1=C\c1ccccc1 .
Key: n

* * *

Tested on: OVCAR-3 ovarian
PROCEDURE_TEXT: NCI tumour cell line growth inhibition, 48 h
MEASURED_QUANTITY: TGI

For orientation, consider the following solved cases.
>>> value("CC(C)COP(C)(=O)C(N)(C(F)(F)F)C(F)(F)F (stereo not given)")
"> 100 µM"
>>> value("Cc1cc2c(cc1C)[n+](=O)c(C(=O)CC(=O)C(=O)Nc1ccccc1C(C)C)c(C)n2[O-]")
"> 100 µM"

Exercise: Item CCc1ccc(Nc2cc(=O)n(C)c(SCc3ccccc3)n2)cc1 has what recorded TGI?
Key: > 100 µM

Exercise: # lookup: TGI of CCCCN(CCCC)CC(C(=O)Nc1ccc([N+](=O)[O-])cc1[N+](=O)[O-])/C(C)=N\NC(=O)C[N+](C)(C)C (stereo not given)
Key: > 100 µM

Exercise: Sample c1ccc2cc(CNCCCCNCCCNCc3ccc4ccccc4c3)ccc2c1 — what was its TGI?
Key: 3.52 µM

Exercise: Look up TGI for this compound: CCCCCCc1cc2cc(-c3csc(/C=C/c4ccccc4)n3)c(=O)oc2cc1O
Key: 9.98 µM

Exercise: Endpoint output: TGI of O=C(O)CCC1CCc2cccc(OCC(=O)O)c2C1=O (stereo not given) . Value?
Key: > 100 µM

Exercise: Name the recorded TGI for O=C(NCCc1ccccc1)c1cc(/C=C/c2cc(O)ccc2O)ccc1O .
Key: 8.11 µM

Exercise: Reported TGI for [N-]=[N+]=CC(=O)OCC1NC(=O)C(COC(=O)C=[N+]=[N-])NC1=O (stereo not given) : what is it?
Key: > 100 µM

Exercise: Fill in: TGI of COc1cc2cc3c4cc(OC)c(OC)cc4cc[n+]3c(C)c2cc1OC is ___
Key: > 100 µM

Values compiled from PubChem BioAssay (NCI).
